# test method notes: Metabolic stability in mouse hepatocyte assessed as intrinsic clearance incubated for 1 to 2 hrs by LC-MS analysis
# Format: ADME, cell-based
# condition summary: hepatocytes, time 1-2 hrs, read-out: CLH
assay endpoint: CLint scaled (mL/min/kg)
Give your result in mL/min/kg as a bare value.

Reference set (2 entries):
CC1(N)CCN(c2cnc3nc(Oc4cccc(Cl)c4Cl)ccc3n2)CC1 ... 10
Nc1nccc(Sc2ccc3nc(N4CCC5(CC4)Cc4cc(F)ccc4[C@H]5N)cnc3n2)c1Cl ... 37

Prompt: Requested read-out: CLint scaled. Entry: CNC1(C)CCN(c2cnc3nc(Sc4ccnc(N)c4Cl)ccc3n2)CC1
Response: 16
